Listing: TGI of selected molecules
tested on: ACHN renal; assay: NCI tumour cell line growth inhibition, 48 h
Express your answer in µM, writing the number without its unit.

{"molecule": "COc1ccc(C2=NN(C(=O)COc3ccc(Cl)cc3)C(O)(c3cc(F)c(Cl)cc3Cl)C2)cc1OC (stereo not given)", "target.under.test": "ACHN renal", "TGI [µM]": 3.28}

[ask] Please give the measured TGI for this molecule: Cc1c(C)c2c(c(N)c1C#N)C(=O)N(OS(=O)(=O)c1ccccc1)C2=O
[reply] 33.1

* * *

Listing: TGI of selected molecules
tested on: RPMI-8226 leukemia; assay: NCI tumour cell line growth inhibition, 48 h

# example entries with known answers
{"molecule": "O=C(Nc1ccccc1)c1cc(S(=O)(=O)Nc2n[nH]c(=O)[nH]2)c(SSc2cc(Cl)c(C(=O)Nc3ccccc3)cc2S(=O)(=O)Nc2n[nH]c(=O)[nH]2)cc1Cl", "target.under.test": "RPMI-8226 leukemia", "measured.parameter": "TGI", "observed": "> 100 µM"}
{"molecule": "COC(=O)c1c(O)ccc2c1c1c(n2Cc2ccc(OC)cc2)C(=O)c2ccccc2C1=O", "target.under.test": "RPMI-8226 leukemia", "measured.parameter": "TGI", "observed": "1.9 µM"}

[ask] Please give the measured TGI for this molecule: N#CC1=C(N)OC2=C(COc3ccc(F)cc32)C1c1ccc(Cl)cc1 (centres undefined)
[reply] > 100 µM

[ask] Please give the measured TGI for this molecule: OCCN1CN(c2nc(N3CN(CCO)C3)nc(N3CN(CCO)C3)n2)C1
[reply] > 100 µM

* * *

system: SK-MEL-28 melanoma; experiment: NCI tumour cell line growth inhibition, 48 h; in the data active means GI50 below about 0.43 µM; inactive means the rest
Hi there, use one of these labels in your reply, thanks! YES for active, NO for inactive

The examples below pair each entry with its known result.
{"compound": "O=C(Nc1ccc(-n2cc(-c3ccncc3)c(-c3ccc(Cl)c(O)c3)n2)cc1)Nc1cc(C(F)(F)F)cc(C(F)(F)F)c1", "assigned.category": "NO"}
{"compound": "CCCCCCCCCNCCCCCCCCC", "assigned.category": "NO"}

[ask] In this assay, the call recorded for CN(NC(=O)CC(=O)NN(C)C(=S)c1ccccc1)C(=S)c1ccccc1 was what?
[reply] NO

[ask] In this assay, the call recorded for O=C(NC1CC1)c1ccc(-c2nc3ccc4[nH]ncc4c3c3c2CCCC3)cc1 was what?
[reply] NO

[ask] In this assay, the call recorded for O=C(c1cc(F)c(Cl)cc1Cl)N1N=C(c2ccccc2)CC1(O)c1ccccc1 (configuration not stated) was what?
[reply] NO

[ask] In this assay, the call recorded for C=C1C[C@@H]2C/C=C/C(=O)C/C(C)=C\C=C\C(=O)O[C@H](C=O)C/C(C)=C/[C@H](C1)O2 was what?
[reply] NO

[ask] In this assay, the call recorded for COc1ccc2nc(-c3ccccc3)cc(Nc3ccc(C(C)=O)cc3)c2c1 was what?
[reply] NO

[ask] In this assay, the call recorded for C[C@@H]1O[C@@H](O[C@@H]2[C@@H](O)[C@H](OCCc3ccc(O)c(O)c3)O[C@H](COC(=O)/C=C/c3ccc(O)c(O)c3)[C@H]2O)[C@H](O)[C@H](O)[C@H]1O was what?
[reply] NO

* * *

Listing: TGI of selected compounds
tested on: RXF-631 renal; assay: NCI tumour cell line growth inhibition, 48 h

{"compound": "Cc1cccc(C)c1NC(=O)CCCC(=O)CC(=O)/C=C/c1ccccc1", "measured.parameter": "TGI", "observed": "> 100 µM"}
{"compound": "CC1(CO)OC1COCc1ccccc1 (stereo unspecified)", "measured.parameter": "TGI", "observed": "> 100 µM"}
{"compound": "COc1ccc(C(=O)C(c2ccc(OC)cc2)C2(O)C(=O)Nc3c(C)cc(Cl)cc32)cc1 (stereo unspecified)", "measured.parameter": "TGI", "observed": "> 100 µM"}
{"compound": "Cc1cc(O)c(C(=O)CC2(O)C(=O)Nc3c(Cl)cc(Cl)cc32)c(=O)o1 (stereo unspecified)", "measured.parameter": "TGI", "observed": "> 100 µM"}
{"compound": "S=c1nc(Oc2ccc(Cl)c(Cl)c2)[nH]c(=S)[nH]1", "measured.parameter": "TGI", "observed": "32.8 µM"}

[ask] Please give the measured TGI for this compound: CN(C)CC(/C(Cc1ccccc1)=N\NC(=O)c1ccncc1)c1ccccc1 (stereo unspecified)
[reply] > 100 µM

* * *

Listing: TGI of selected compounds
test system: SN12C renal; experiment: NCI tumour cell line growth inhibition, 48 h

{"compound": "COc1ccccc1C1=C2C(=O)N(C)C(c3ccccc3OC)=C2C(=O)N1C", "TGI": "> 100 µM"}
{"compound": "N=C1c2nc3n(c2C(=O)c2nc4n(c21)CCCC4)CCCC3", "TGI": "3.12 µM"}

Moving on to another compound below.
[ask] Fill in the recorded TGI for this compound, with SN12C renal as test system: O=C(O)C(F)(F)C(F)(F)C(F)(F)C(F)(F)C(=O)O
[reply] > 100 µM

* * *

test system: MDA-MB-231 breast; assay: NCI tumour cell line growth inhibition, 48 h; in the data active = GI50 below about 0.43 µM; inactive = the rest
Hi there, use one of these labels in your reply, thanks! 1 (active), -1 (inactive)

[ask] In this assay, the call recorded for c1ccc2[nH]c(SSc3nc4ncncc4[nH]3)nc2c1 was what?
[reply] -1

[ask] In this assay, the call recorded for CCOC(=O)CCCn1c(SC)nc2cc(-c3ccco3)[nH]c2c1=O was what?
[reply] -1

[ask] In this assay, the call recorded for CC(C)(C)C(=O)Nc1ccccc1I(=O)=O was what?
[reply] -1

[ask] In this assay, the call recorded for CCC1=C[C@@H]2CN(C1)Cc1c([nH]c3ccccc13)[C@@](C(=O)OC)(c1cc3c(cc1OC)N(C=O)[C@H]1[C@@](O)(C(=O)OC)[C@H](OC(C)=O)[C@]4(CC)[C@@H]5C[C@@H]5CN5CC[C@]31[C@@H]54)C2 was what?
[reply] 1

[ask] In this assay, the call recorded for O=C(c1cc(F)c(Cl)cc1Cl)N1N=C(c2ccccc2)CC1(O)c1ccccc1 (stereo not given) was what?
[reply] -1

[ask] In this assay, the call recorded for COc1cc(Cl)cc(-c2nn(C(=O)NCCN3CCN(C)CC3)cc2-c2ccncc2)c1 was what?
[reply] -1

* * *

system: CCRF-CEM leukemia; assay: NCI tumour cell line growth inhibition, 48 h
Listing: TGI of selected molecules

{"structure": "CN(NC(=O)CC(=O)NN(C)C(=S)c1ccccc1)C(=S)c1ccccc1", "target.under.test": "CCRF-CEM leukemia", "TGI": "> 100 µM"}
{"structure": "CC1(C)COCN1COC1CCCCC1", "target.under.test": "CCRF-CEM leukemia", "TGI": "> 100 µM"}
{"structure": "COc1ccc(-c2cc(C3CC3)nc(SCC(=O)O)c2C#N)cc1", "target.under.test": "CCRF-CEM leukemia", "TGI": "> 100 µM"}

Moving on to another molecule below.
[ask] Please give the measured TGI for this molecule: O=C1C(Cl)=C(Oc2ccc([N+](=O)[O-])cc2)C(=O)c2c(O)ccc(O)c21
[reply] 12.9 µM

* * *

tested on: RXF 393 renal; assay: NCI tumour cell line growth inhibition, 48 h
Listing: GI50 of selected molecules

# example entries with known answers
{"molecule": "COc1cc(NC(=O)c2cc(OC)c3ccn(C)c3c2)cc2c1C[C@]1(C)CC[C@@H](O)C(C)(C)[C@H]1O2", "target.under.test": "RXF 393 renal", "GI50": "0.759 µM"}
{"molecule": "CN(NC(=O)CC(=O)NN(C)C(=S)c1ccccc1)C(=S)c1ccccc1", "target.under.test": "RXF 393 renal", "GI50": "> 61.1 µM"}
{"molecule": "CCOC(=O)CCCn1c(SC)nc2cc(-c3ccco3)[nH]c2c1=O", "target.under.test": "RXF 393 renal", "GI50": "12 µM"}
{"molecule": "CCCCCCCCCNCCCCCCCCC", "target.under.test": "RXF 393 renal", "GI50": "1.81 µM"}
{"molecule": "CCCCCNC(=O)[C@@H]1CCCN2C(=O)CC[C@H](NC(=O)[C@H](Cc3ccc(OP(=O)(O)O)cc3)NC(C)=O)C(=O)N12", "target.under.test": "RXF 393 renal", "GI50": "> 25 µM"}
{"molecule": "COc1c(C)c2c(c(O)c1C/C=C(\\C)CCC(=O)OCCN1CCOCC1)C(=O)OC2", "target.under.test": "RXF 393 renal", "GI50": "0.774 µM"}

[ask] Please give the measured GI50 for this molecule: N#CC1=C(N)OC2=C(COc3ccc(F)cc32)C1c1ccc(Cl)cc1 (centres undefined)
[reply] > 100 µM

[ask] Please give the measured GI50 for this molecule: N=C1c2nc3n(c2C(=O)c2nc4n(c21)CCCC4)CCCC3
[reply] 15.8 µM

[ask] Please give the measured GI50 for this molecule: O=C(Nc1ccc(-n2cc(-c3ccncc3)c(-c3ccc(O)c(Cl)c3)n2)cc1)c1cc(Cl)cc(Cl)c1
[reply] 0.575 µM
